Where do these numbers come from? They come from ChEMBL document CHEMBL6087445.

- experiment summary: Microsomal stability in human liver microsomes assessed as parent compound remaining measured after 30 mins by LC-MS/MS analysis
- Format: ADME, Microsome
- applied conditions: read-out: Stability
Here the recorded remaining at 0.5 h is given for each entry.
Only the number, expressed in %, is required.

Worked cases, remaining at 0.5 h given:
[
  {
    "item smiles": "CNC(=O)c1ccc(-c2ccc3nccc(NC4CCNCC4)c3n2)cn1",
    "unit tag": "%",
    "remaining at 0.5 h": 94.4
  },
  {
    "item smiles": "CN1CCC(Nc2ccnc3ccc(-c4ccc(C(=O)NCCO)nc4)nc23)CC1",
    "unit tag": "%",
    "remaining at 0.5 h": 95.5
  },
  {
    "item smiles": "CS(=O)(=O)c1cccc(-c2ccc3nccc(N4CCNCC4)c3n2)c1",
    "unit tag": "%",
    "remaining at 0.5 h": 55.1
  },
  {
    "item smiles": "COc1ccc(-c2ccc3nccc(N[C@@H]4CCNC4)c3n2)cn1",
    "unit tag": "%",
    "remaining at 0.5 h": 54.6
  }
]

// next item, remaining at 0.5 h requested
Would you mind telling me what remaining at 0.5 h value was observed for `Cn1ccc(-c2ccc3nccc(N[C@@H]4CCNC4)c3n2)cc1=O` ?
98
